// provenance: patent US20240301056A1

Field: koff. Provide a value for each of the binders that follow.
- study-target: Human L1CAM (purified protein) (human) (UniProt P32004)
- method: BLI, Octet RED384; antibody captured on AHC sensor, human L1CAM 50-0.78 nM as analyte
All answers are understood in s⁻¹, so give the number only.

Challenge: Which koff value belongs to Ab4H6 antibody (antibody, human IgG1, kappa, V domains shown, Whole human IgG1, kappa; also called Anti-L1CAM ("Ab4H6"); Ab4H6 mutant) VH: EVQLVESGGGVVQPGGSLRLSCAASGFTFSRFGMHWVRQAPGKGLEWVAFISNEGSNKYYADSVKGRFTISRDNSANTLYLQMNSLRAEDTAVYYCARGRAYGSGSLFDPWGQGTLVTVSS VL: DIQLTQSPSSLSASVGDRVTITCRASRTISSYVNWYRQRPGKAPESLIYAASNLHSGVPSRFSGSGSGTDFTLTISSLQPEDFATYYCQQSLHFYPWTFGQGTKLEIKR ?
Response given: 2.77e-05

Challenge: Recorded koff of Ab612 antibody (antibody, human IgG1, kappa, V domains shown, Whole human IgG1, kappa, purified on protein A; also called Anti-L1CAM ("Ab612")) VH: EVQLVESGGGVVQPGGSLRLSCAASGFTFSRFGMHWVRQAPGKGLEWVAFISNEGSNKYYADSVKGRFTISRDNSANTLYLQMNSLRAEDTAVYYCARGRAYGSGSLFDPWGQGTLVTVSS VL: DIQLTQSPSSLSASVGDRVTITCRASRTISSYVNWYRQRPGKAPESLIYAASNLHSGVPSRFSGSGSGTDFTLTISSLQPEDFATYYCQQSIGRGPVTFGQGTKLEIKR , please.
Response given: 3.28e-05
